Ref: patent US7074789B2

Target: Itk (Homo sapiens, UniProt Q08881)
Construct: Kinases are expressed as either kinase domains or full length constructs; made in house
Sequence (Q08881 1-620): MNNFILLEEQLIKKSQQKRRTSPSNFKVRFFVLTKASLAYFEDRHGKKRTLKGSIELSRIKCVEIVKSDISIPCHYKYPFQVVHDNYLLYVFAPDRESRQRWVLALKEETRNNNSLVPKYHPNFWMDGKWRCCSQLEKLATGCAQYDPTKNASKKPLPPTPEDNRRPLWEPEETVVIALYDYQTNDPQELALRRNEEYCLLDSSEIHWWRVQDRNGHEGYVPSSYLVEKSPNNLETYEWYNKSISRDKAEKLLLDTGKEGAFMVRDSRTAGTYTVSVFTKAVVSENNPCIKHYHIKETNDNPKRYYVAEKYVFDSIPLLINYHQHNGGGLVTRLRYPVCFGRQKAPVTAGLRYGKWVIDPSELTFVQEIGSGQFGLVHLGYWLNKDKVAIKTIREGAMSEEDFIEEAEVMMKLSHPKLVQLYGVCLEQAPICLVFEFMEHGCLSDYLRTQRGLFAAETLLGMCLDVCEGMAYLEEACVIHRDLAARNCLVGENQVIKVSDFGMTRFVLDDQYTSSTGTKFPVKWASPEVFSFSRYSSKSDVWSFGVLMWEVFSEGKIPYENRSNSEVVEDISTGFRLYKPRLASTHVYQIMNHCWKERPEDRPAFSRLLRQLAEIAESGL
Assay: Kinase inhibition assay (33P transfer), Itk
Assay type: biochemical
Settings: Table 3, class symbols; read-out: Itk-1
ASSAY READOUT: IC50

Query string: Quick check: IC50 of COc1cc(Nc2ncnc(-c3cccnc3N[C@@H](C)c3ccccc3)n2)cc(OC)c1OC [Compound 1111] ?
Result string: > 9.81 µM

Query string: Then COc1ccc(Nc2ncnc(Nc3ccc4c(c3)C(=O)N(C)C4=O)n2)cc1OC [Compound 856] ?
Result string: > 11.1 µM

Query string: Then COc1cc(Nc2ncnc(-c3cccnc3NCC(C)c3ccccc3)n2)cc(OC)c1OC (centres unmarked) [Compound 890] ?
Result string: > 9.52 µM

Query string: Then CN(c1cccc(Cl)c1)c1ncnc(Nc2ccc(OC(F)(F)F)cc2)n1 [Compound 874] ?
Result string: > 11.4 µM

Query string: Then CN(c1ccc2c(cnn2Cc2ccccc2)c1)c1ncnc(Nc2cccc(Br)c2)n1 [Compound 667] ?
Result string: > 9.25 µM

Query string: Then COC(=O)c1ccc(-c2cc(Nc3ncnc(Nc4cccc(CCC(=O)O)c4)n3)[nH]n2)cc1 [Compound 992] ?
Result string: 0.871 to 5.22 µM

Query string: Then CN(c1cccc(Cl)c1)c1ncnc(Nc2cccc(OC(F)(F)F)c2)n1 [Compound 875] ?
Result string: 8.84 to 11.4 µM

Query string: Then COC(=O)c1ccc(-c2cc(Nc3ncnc(NC4=NC(=O)CS4)n3)[nH]n2)cc1 [Compound 881] ?
Result string: 0.975 to 5.85 µM

* * *

Molecular target: EGFR (Homo sapiens)
Construct: Kinases are expressed as either kinase domains or full length constructs; made in house
Experiment: Kinase inhibition assay (33P transfer), EGFR
Format: biochemical
Settings: Table 2, kinase inhibition class; read-out: EGFR-1
Exercise: for every item that follows, state its recorded IC50.

Query string: Quick check: IC50 of COc1cc(Nc2ncnc(Nc3cc(-c4ccc(C(=O)NCCc5ccccc5)cc4)n[nH]3)n2)cc(OC)c1OC ?
Result string: > 7.94 µM

Query string: Then COc1cc(Nc2ncnc(Nc3cccc4cccnc34)n2)cc(OC)c1OC ?
Result string: > 11.1 µM

Query string: Then COc1cc(Nc2ncnc(Nc3cccc4ccccc34)n2)cc(OC)c1OCCN1CCOCC1 ?
Result string: < 0.796 µM

Query string: Then COc1ccc(Nc2ncnc(Nc3ccc(C)c(O)c3)n2)cc1OC ?
Result string: < 1.13 µM

Query string: Then COc1cc(Nc2ncnc(Nc3cc(OC)c(OC)c(OC)c3)n2)cc(OC)c1OC ?
Result string: 7.89 to 10.1 µM

Query string: Then COc1cc(Nc2ncnc(-n3c(NCc4ccc(C)cc4C)nc4ccccc43)n2)cc(OC)c1OC ?
Result string: 4.69 to 6.84 µM

Query string: Then COc1cc(Nc2ncnc(-n3c(Nc4ccc(C)cc4)nc4ccccc43)n2)cc(OC)c1OC ?
Result string: > 9.31 µM

Query string: Then CC(C)(C)c1cc(Nc2ncnc(Nc3ccc(CO)cc3)n2)[nH]n1 ?
Result string: 1.18 to 7.07 µM

Query string: Then CN(c1cccc(Cl)c1)c1ncnc(Nc2ccc(C(F)(F)F)cc2)n1 ?
Result string: 1.05 to 6.32 µM

Query string: Then COc1cc(Nc2ncnc(-c3c(O)[nH]c4ccc(Cl)cc34)n2)cc(OC)c1OC ?
Result string: 5.61 to 8.18 µM

Query string: Then COc1cc(Nc2ncnc(-n3c(NCc4ccc(Cl)cc4C)nc4ccccc43)n2)cc(OC)c1OC ?
Result string: 6.58 to 8.46 µM

Query string: Then O=C(Nc1cccc(Nc2ncnc(-n3c(=O)[nH]c4ccccc43)n2)c1)O[C@@H]1CCOC1 ?
Result string: 5.54 to 8.08 µM

Query string: Then COC(=O)c1cccc(Nc2ncnc(Nc3cc(-c4ccco4)n[nH]3)n2)c1 ?
Result string: > 11.9 µM

Query string: Then COc1cc(Nc2ncnc(Nc3nc(C)cs3)n2)cc(OC)c1OC ?
Result string: 1.07 to 6.41 µM

Query string: Then CN(c1cccc(Cl)c1)c1ncnc(Nc2ccc(NC(=O)OC(C)(C)C)cc2)n1 ?
Result string: < 0.937 µM

Query string: Then Fc1ccc(Nc2ncnc(Nc3ccc4cn[nH]c4c3)n2)cc1Cl ?
Result string: < 1.12 µM

Query string: Then COc1cc(Nc2ncnc(-n3ccc4cc(OCc5ccccc5)ccc43)n2)cc(OC)c1OC ?
Result string: > 9.31 µM

* * *

Exercise: for every item that follows, state its recorded IC50.
Molecular target: Zap-70 (Homo sapiens, UniProt P43403)
Construct: Kinases are expressed as either kinase domains or full length constructs; made in house
Sequence (P43403 whole entry, species assumed, the tested form may be a part): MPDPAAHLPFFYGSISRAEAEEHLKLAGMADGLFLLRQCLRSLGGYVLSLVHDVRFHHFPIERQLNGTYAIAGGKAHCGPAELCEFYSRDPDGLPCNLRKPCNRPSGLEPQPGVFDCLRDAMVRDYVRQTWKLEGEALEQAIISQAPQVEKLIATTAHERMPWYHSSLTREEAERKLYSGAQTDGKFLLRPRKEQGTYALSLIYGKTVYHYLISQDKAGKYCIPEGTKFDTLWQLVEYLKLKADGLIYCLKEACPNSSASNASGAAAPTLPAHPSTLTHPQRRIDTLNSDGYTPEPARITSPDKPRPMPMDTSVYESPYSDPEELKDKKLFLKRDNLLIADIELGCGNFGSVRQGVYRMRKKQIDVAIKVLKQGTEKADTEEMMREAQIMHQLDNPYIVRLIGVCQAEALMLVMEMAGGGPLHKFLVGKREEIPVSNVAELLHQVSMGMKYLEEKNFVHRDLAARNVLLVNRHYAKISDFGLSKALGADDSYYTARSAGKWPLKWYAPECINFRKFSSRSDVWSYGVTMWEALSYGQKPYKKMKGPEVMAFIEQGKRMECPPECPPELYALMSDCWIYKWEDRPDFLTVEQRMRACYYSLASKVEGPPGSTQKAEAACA
Assay: Kinase inhibition assay (33P transfer), Zap-70
Type: biochemical
Details: Table 3, class symbols; read-out: Zap-1
Excerpt: The inhibitor compounds described herein are screened in the following manner. […] Kinases are expressed as either kinase domains or full length constructs fused to glutathione S-transferase (GST) or polyHistidine tagged fusion proteins in either E. colior Baculovirus-High Five expression systems. […]

Query string: Quick check: IC50 of COc1ccc(Nc2ncnc(NCC(=O)c3ccccc3)n2)cc1OC [Compound 857] ?
Result string: > 12.3 µM

Query string: Then O=C(O)CCNC(=O)c1ccc(Nc2ncnc(Nc3cc(-c4ccco4)[nH]n3)n2)cc1 [Compound 885] ?
Result string: 5.52 to 8.06 µM

Query string: Then COc1ccc(Nc2ncnc(Nc3ccc4c(c3)C(=O)OC4)n2)cc1OC [Compound 894] ?
Result string: > 11.9 µM

Query string: Then COC(=O)c1ccc(-c2cc(Nc3ncnc(Nc4cccc5ncccc45)n3)[nH]n2)cc1 [Compound 878] ?
Result string: > 10.3 µM

Query string: Then COc1ccc(Nc2ncnc(Nc3cc(-c4ccc(C)cc4)n[nH]3)n2)c(C)c1 [Compound 1126] ?
Result string: > 11.6 µM

Query string: Then O=C(O)Cc1cccc(Nc2ncnc(-c3cccnc3Nc3ccccc3)n2)c1 [Compound 1094] ?
Result string: 6.02 to 8.78 µM

Query string: Then COc1ccc(Nc2ncnc(NCc3cccc(Cl)c3)n2)cc1OC [Compound 792] ?
Result string: > 12.1 µM

Query string: Then CCN(c1cccc(Cl)c1)c1ncnc(Nc2cc(OC)cc(OC)c2)n1 [Compound 724] ?
Result string: > 11.7 µM

Query string: Then c1ccc(CNc2ncccc2-c2ncnc(Nc3ccc(N4CCOCC4)cc3)n2)cc1 [Compound 1105] ?
Result string: > 10.2 µM

* * *

Exercise: for every item that follows, state its recorded IC50.
Molecular target: EGFR (Homo sapiens, UniProt P00533)
Construct: Kinases are expressed as either kinase domains or full length constructs; made in house
Sequence (P00533 25-1210, species assumed): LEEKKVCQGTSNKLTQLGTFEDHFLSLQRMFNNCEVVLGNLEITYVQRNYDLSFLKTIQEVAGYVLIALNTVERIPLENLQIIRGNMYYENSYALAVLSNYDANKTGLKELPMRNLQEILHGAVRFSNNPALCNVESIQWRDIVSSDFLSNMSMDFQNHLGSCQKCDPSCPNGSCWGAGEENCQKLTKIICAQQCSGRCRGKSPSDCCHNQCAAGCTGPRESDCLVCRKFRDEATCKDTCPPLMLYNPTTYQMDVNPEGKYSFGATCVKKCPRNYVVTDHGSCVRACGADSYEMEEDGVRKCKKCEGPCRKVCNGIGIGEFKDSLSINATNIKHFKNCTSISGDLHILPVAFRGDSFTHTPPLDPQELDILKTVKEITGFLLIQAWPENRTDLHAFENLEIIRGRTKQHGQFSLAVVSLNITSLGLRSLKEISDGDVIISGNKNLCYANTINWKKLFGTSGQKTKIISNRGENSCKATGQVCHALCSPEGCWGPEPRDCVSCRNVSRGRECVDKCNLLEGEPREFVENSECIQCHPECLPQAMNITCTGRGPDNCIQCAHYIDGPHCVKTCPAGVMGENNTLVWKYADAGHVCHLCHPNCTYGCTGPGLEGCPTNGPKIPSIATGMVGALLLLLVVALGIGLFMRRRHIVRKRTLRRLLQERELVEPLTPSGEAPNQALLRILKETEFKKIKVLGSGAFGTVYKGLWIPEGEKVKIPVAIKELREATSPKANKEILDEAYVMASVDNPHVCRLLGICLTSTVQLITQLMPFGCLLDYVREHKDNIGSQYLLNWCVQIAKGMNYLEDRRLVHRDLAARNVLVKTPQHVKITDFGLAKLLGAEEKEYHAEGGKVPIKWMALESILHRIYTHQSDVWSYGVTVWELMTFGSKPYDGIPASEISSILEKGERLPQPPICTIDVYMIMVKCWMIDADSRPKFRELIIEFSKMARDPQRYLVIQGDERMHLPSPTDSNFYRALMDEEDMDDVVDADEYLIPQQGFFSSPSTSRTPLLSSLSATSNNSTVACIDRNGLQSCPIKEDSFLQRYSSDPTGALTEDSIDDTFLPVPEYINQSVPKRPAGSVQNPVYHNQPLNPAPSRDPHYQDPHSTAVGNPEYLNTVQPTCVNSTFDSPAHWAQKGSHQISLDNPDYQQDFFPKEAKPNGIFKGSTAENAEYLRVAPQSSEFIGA
Assay: Kinase inhibition assay (33P transfer), EGFR
Type: biochemical
Conditions: Table 2, kinase inhibition class; read-out: EGFR-1
Procedure: The inhibitor compounds described herein are screened in the following manner. […] Kinases are expressed as either kinase domains or full length constructs fused to glutathione S-transferase (GST) or polyHistidine tagged fusion proteins in either E. colior Baculovirus-High Five expression systems. […] Kinase activity and inhibition are measured essentially by established protocols (Braunwalder et al., 1996). […]

Query string: State its IC50 on EGFR (Homo sapiens, UniProt P00533): CN(c1cccc(Cl)c1)c1ncnc(NCCOCCO)n1
Result string: > 13.9 µM

Query string: Then CCOc1ccc(Nc2ncnc(Nc3ccc(C)c(O)c3)n2)cc1OCC ?
Result string: 1.05 to 6.29 µM

Query string: Then Nc1nc2ccccc2n1-c1ncnc(Nc2cccc(Cl)c2)n1 ?
Result string: 1.18 to 7.11 µM

Query string: Then CC(=O)c1ccc(Nc2ncnc(Nc3ccc4c(cnn4Cc4ccccc4)c3)n2)cc1 ?
Result string: < 0.919 µM

Query string: Then COc1ccc(Nc2ncnc(Nc3ccccc3C)n2)cc1OC ?
Result string: < 1.19 µM

Query string: Then COc1cc(Nc2ncnc(Nc3cc(-c4cccc(C(F)(F)F)c4)n[nH]3)n2)cc(OC)c1OC ?
Result string: 4.92 to 7.18 µM

Query string: Then CN(c1cccc(Cl)c1)c1ncnc(Nc2cc(C(C)(C)C)on2)n1 ?
Result string: > 12.5 µM

Query string: Then COc1cc(Nc2ncnc(-n3c(=O)sc4ccccc43)n2)cc(OC)c1OC ?
Result string: > 10.9 µM

Query string: Then COc1cc(Nc2ncnc(-n3c(Nc4cc(C)n[nH]4)nc4ccccc43)n2)cc(OC)c1OC ?
Result string: 0.845 to 5.07 µM

Query string: Then COc1cc(Nc2nc3ccccc3n2-c2ncnc(Nc3cc(OC)c(OC)c(OC)c3)n2)cc(OC)c1 ?
Result string: > 8.5 µM

Query string: Then CCOC(=O)Cc1ccc(Nc2ncnc(-c3ccccc3)n2)cc1 ?
Result string: > 13.5 µM

Query string: Then CC(=O)NS(=O)(=O)c1ccc(Nc2ncnc(N(C)c3cccc(Cl)c3)n2)cc1 ?
Result string: < 0.924 µM

Query string: Then CN(c1cccc(Cl)c1)c1ncnc(Nc2cccc(CNC(=O)O[C@@H]3CCOC3)c2)n1 ?
Result string: < 0.879 µM

Query string: Then COc1ccc(Nc2ncnc(NCCCN3CCN(C)CC3)n2)cc1OC ?
Result string: > 11.6 µM

Query string: Then COc1ccccc1Nc1ncnc(-n2cccc2)n1 ?
Result string: > 16.8 µM

Query string: Then COc1cc(Nc2ncnc(Nc3ccc(O)cc3C)n2)cc(OC)c1OC ?
Result string: 6.26 to 9.13 µM

Query string: Then Cc1ccc2c(c1)CCCN2c1ncnc(NCc2ccccn2)n1 ?
Result string: > 13.5 µM

Query string: Then COc1cc(Nc2ncnc(Nc3ccc(C)c(NS(C)(=O)=O)c3)n2)cc(OC)c1OC ?
Result string: 0.869 to 5.21 µM
